Entries and their Inhibition values follow.
tested on: HepG2; assay: GSK_TCMDC: Percent inhibition of human HepG2 cell line. Test compounds present at 10uM.; assay type: functional
Reply numerically in %, unit not repeated.

Solved entries (count: 2):
CCNC(=O)Nc1cccc(-c2cccc(-c3nc4cc(C(F)(F)F)ccc4[nH]3)c2)c1    50
CC(C)Cn1c2ccccc2c2nc3nc(N)nc(N)c3nc21    36

QUERY: Inhibition lookup needed for O=C(Cc1ccc[n+]([O-])c1)Nc1ccc(-c2cccc(-c3nc4cc(C(F)(F)F)ccc4[nH]3)c2)cc1 , thanks.
RESULT: 16

QUERY: Thanks! And Cc1cccc2nc(-c3cccc(-c4cccc(NC(=O)c5cn(C)c(=O)n5C)c4)c3)[nH]c12 ?
RESULT: 5

QUERY: # iterate: O=C(O)C(F)(F)F.O=C1OC(c2ccccc2)(c2ccccn2)CN1C1CCN(Cc2cccn2-c2ccc(Cl)cc2)CC1 (stereo not drawn)
RESULT: 21

QUERY: Follow-up item: Cc1nc2c(c(C)nn2C(C)(C)C)c(C)c1CCC(=O)Nc1ccc(CN2CCCC2)cc1
RESULT: 1

QUERY: Next record, please: O=C(/C=C/c1ccc(Cl)c(Cl)c1)NCCCCCN1CCC(NC(=O)Nc2cccc(C(F)(F)F)c2)CC1
RESULT: 61

QUERY: Would you mind doing CCC(=O)Nc1ccc(C(O)CN2CCC3(C=Cc4ccccc4O3)CC2)cc1 (stereo not drawn) as well?
RESULT: 48

QUERY: Follow-up entry: COc1ccc(-c2ccc(CNCc3ccsc3)cc2)cc1S(=O)(=O)NCCN1CCCC1.O=C(O)C(F)(F)F
RESULT: 22

QUERY: Try this compound next: CN1CCC(N(Cc2ccc(N3CCN(Cc4c[nH]c5ccc(Cl)cc45)CC3)nc2)C2CC2)CC1
RESULT: 96

QUERY: Try the compound Clc1ccc(Cc2nc3ccccc3[nH]2)cc1Cl
RESULT: 5

QUERY: Note, next up: COc1cc(C(C)C)ccc1C1CCN(CCCCNC(=O)c2ccc(NC(=O)c3ccc(Cl)cc3)cc2)CC1.O=C(O)/C=C/C(=O)O
RESULT: 100

QUERY: Check COc1ccc(C2CC(c3ccccc3O)=NN2C(=O)c2ccco2)cc1OC (stereo not drawn) too.
RESULT: 11
